Each recorded value in this set is attributed to patent US4933330A.

# procedure details: In vivo dermal absorption of 5-ASA (serum and urine) in healthy volunteers
# condition summary: human, in vivo, topical or ocular
measured attribute: concentration at 0.75 h (ng/mL)
Numbers only, in ng/mL.

Query: // lookup concentration at 0.75 h for Nc1ccc(O)c(C(=O)O)c1 [Example 5-ASA, 5-aminosalicylic acid, reference compound]
Reply: 7.3

---

# procedure details: In vivo absorption of 4-ASA (serum and urine) in healthy volunteers
# condition summary: human, serum, topical or ocular, 25 mg
measured attribute: concentration at 0.5 h (ng/mL)
Answers are plain numbers, in ng/mL.

Query: // lookup concentration at 0.5 h for Nc1ccc(C(=O)O)c(O)c1
Reply: 43

---

# procedure details: In vivo dermal absorption of 5-ASA (serum and urine) in healthy volunteers
# condition summary: human, in vivo, topical or ocular
measured attribute: concentration at 0.25 h (ng/mL)
Numbers only, in ng/mL.

Query: // lookup concentration at 0.25 h for Nc1ccc(O)c(C(=O)O)c1 [Example 5-ASA, 5-aminosalicylic acid, reference compound]
Reply: 19.4

---

# procedure details: In vivo dermal absorption of 5-ASA (serum and urine) in healthy volunteers
# condition summary: human, in vivo, topical or ocular
measured attribute: concentration at 0.5 h (ng/mL)
Numbers only, in ng/mL.

Query: // lookup concentration at 0.5 h for Nc1ccc(O)c(C(=O)O)c1 [Example 5-ASA, 5-aminosalicylic acid, reference compound]
Reply: 8.3

---

# procedure details: In vivo absorption of 4-ASA (serum and urine) in healthy volunteers
# condition summary: human, serum, topical or ocular, 25 mg
measured attribute: concentration at 1.5 h (ng/mL)
Numbers only, in ng/mL.

Query: // lookup concentration at 1.5 h for Nc1ccc(C(=O)O)c(O)c1
Reply: 16
